# protocolDetails: Plasma concentration in Sprague-Dawley rat at 5 mg/kg, iv measured upto 120 mins by LC-MS/MS analysis
# Type: ADME, organism-based
recordedEndpoint: concentration at 2 h (µM)

a = CN(C)c1ccc(/C=C/c2ccccc2NC(=O)c2ccccn2)cc1
b = O=C(Nc1ccccc1/C=C/c1ccc([N+](=O)[O-])cc1)c1ccccn1
Pick one: a or b . Which one has the lower reported concentration at 2 h? // respond with label for picked entry a
(a: 6.06 µM, b: 38.5 µM)

---

# protocolDetails: Ratio of drug concentration in Sprague-Dawley rat brain to plasma at 5 mg/kg, iv measured upto 120 mins by LC-MS/MS analysis
# Format: ADME, organism-based
# measurementSetup: read-out: BPR
recordedEndpoint: Kp at 2 h

1 = O=C(Nc1ccccc1/C=C/c1ccc([N+](=O)[O-])cc1)c1ccccn1
2 = CN(C)c1ccc(/C=C/c2ccccc2NC(=O)c2ccccn2)cc1
Param pair: 1 , 2 . Output: the one whose Kp at 2 h is numerically greater. // respond with label for picked entry 2

---

# targetUnderTest: Alpha-synuclein (Homo sapiens)
# protocolDetails: Binding affinity to recombinant human alpha-syn aggregates assessed as dissociation constant by SPR analysis
pKd: −log10 of the molar value.
recordedEndpoint: pKd

// O=C(Nc1ccccc1/C=C/c1ccc([N+](=O)[O-])cc1)c1cccnn1 : pKd value = < 5.00

// COc1ccc(/C=C/c2ccccc2NC(=O)c2cccnc2)cc1 : pKd value = < 5.00

// O=C(Nc1ccc(/C=C/c2ccc(F)cc2)cc1)c1ccccc1 : pKd value = < 5.00

// COc1ccc(/C=C/c2ccc(NC(=O)c3ccccc3)cc2)cc1 : pKd value = < 5.00

// COc1ccc(/C=C/c2ccccc2NC(=O)NCc2cnccn2)cc1 : pKd value = < 5.00

// COc1ccc(/C=C/c2ccccc2NC(=O)c2cccs2)cc1 : pKd value = < 5.00

More entries:
// COc1ccc(/C=C/c2ccccc2NC(=O)c2cccnn2)cc1 : pKd value = < 5.00

// O=C(Nc1ccccc1/C=C/c1ccc(F)cc1)c1cccnn1 : pKd value = < 5.00

---

# protocolDetails: Brain concentration in Sprague-Dawley rat at 5 mg/kg, iv measured upto 120 mins by LC-MS/MS analysis
# Assay type: ADME, organism-based
# measurementSetup: read-out: Ct
recordedEndpoint: concentration at 2 h (µM)

P = O=C(Nc1ccccc1/C=C/c1ccc([N+](=O)[O-])cc1)c1ccccn1
Q = CN(C)c1ccc(/C=C/c2ccccc2NC(=O)c2ccccn2)cc1
Param pair: P , Q . Output: the one whose concentration at 2 h is numerically greater. // respond with label for picked entry P
(P: 46.8 µM, Q: 15.9 µM)

Value source: ChEMBL document CHEMBL5038614
